# Test system: barnyardgrass (Echinochloa crus-galli)
# method notes: Test A preemergence, visual plant response rating
# Type: in vivo
# experimental conditions: 125 g ai/ha, preemergence; 0 to 100 scale, 0 no effect, 100 complete control
quantity: Barnyardgrass plant response rating
The answer should be written as a number, with no unit following it.

Provide the documented Barnyardgrass plant response rating with barnyardgrass (Echinochloa crus-galli) as the system for CON=C(c1ccccc1C1CC1)c1c(O)c(C)nn(C)c1=O [Compound 105]
60

Same for CON=C(c1c(Cl)ccc(C)c1F)c1c(O)c(C)nn(C)c1=O [Compound 101]
0

Repeat for the following compound: CON=C(c1cccc(C(F)(F)F)c1)c1c(O)c(C)nn(C)c1=O [Compound 56]
0

// repeat for CON=C(c1ccc(C)s1)c1c(O)c(C)nn(C)c1=O (mixture of isomers) [Compound 144] and report
0

What do you get for CO/N=C(\c1c(O)c(C)nn(C)c1=O)c1cc(Br)cc2ccccc12 [Compound 91] ?
100

Next entry: CON=C(c1cc(C)ccc1Cl)c1c(O)c(C)nn(C)c1=O [Compound 67]
0

Let us now turn to CCCO/N=C(\c1c(O)c(C)nn(C)c1=O)c1cccc2ccccc12 [Compound 80]
60

Similarly, CO/N=C(\c1sccc1C)c1c(O)c(C)nn(C)c1=O [Compound 42] ?
0

Proceed to CON=C(c1cccc(C#N)c1)c1c(O)c(C)nn(C)c1=O [Compound 57]
0

Okay, and C=CCON=C(c1c(O)c(C)nn(C)c1=O)c1cc(Br)cc2ccccc12 [Compound 114] ?
90

For CCO/N=C(/c1c(O)c(C)nn(C)c1=O)c1cc(Br)cc2ccccc12 [Compound 113] then?
90

Now this one: C#CCO/N=C(\c1c(O)c(C)nn(C)c1=O)c1cccc2ccccc12 [Compound 83]
80

Quick one: CON=C(c1c(O)c(C)nn(C)c1=O)c1cccc2sccc12 [Compound 59]
0

Could you do the same for CO/N=C(\c1cc(C)ccc1C)c1c(O)c(C)nn(C)c1=O [Compound 66] , please?
0

Quick one: CON=C(c1ccccc1C1CC1)c1c(O)c(C)nn(C)c1=O [Compound 104]
60

Continue with CO/N=C(/c1c(O)c(C)nn(C)c1=O)c1ccc(OC)c2ccccc12 [Compound 142]
0

Repeat for the following compound: CO/N=C(\c1cccc(C(F)(F)F)c1)c1c(O)c(C)nn(C)c1=O [Compound 71]
0

And the next one, CON=C(c1cc(C)cs1)c1c(O)c(C)nn(C)c1=O (mixture of isomers) [Compound 133] ?
0
